target: AR protein (Homo sapiens); construct: degradation activity of the compounds disclosed in the present disclosure on AR protein in VCaP cells; host or cells: VCaP; experiment: Degradation of AR protein in VCaP cells (Western blot); type: cell-based; settings: compound at 100 nM, 8 hours, read-out: Degradation rate of the AR protein in VCaP cells, 100 nM (%)
Entries annotated with measured inhibition at 0.1 µM

- compound: "N#Cc1ccc(O[C@H]2CC[C@H](NC(=O)c3ccc(N4CC(CN5CCC6(CC5)COc5cc7c(cc5C6)C(=O)N(C5CCC(=O)NC5=O)C7=O)C4)nn3)CC2)cc1Cl (stereo partly shown)"
  inhibition at 0.1 µM / %: 87
- compound: "COc1cc(OC2CCC(NC(=O)c3cnc(N4CCC(C)(CN5CCC6(CC5)COc5c6ccc6c5C(=O)N(C5CCC(=O)NC5=O)C6=O)CC4)nc3)CC2)ccc1C#N (stereo not shown)"
  inhibition at 0.1 µM / %: 61
- compound: "COc1cc(O[C@H]2CC[C@H](NC(=O)c3ccc(N4CC(CN5CCC6(CC5)COc5c6ccc6c5C(=O)N(C5CCC(=O)NC5=O)C6=O)C4)nn3)CC2)ccc1C#N (stereo partly shown)"
  inhibition at 0.1 µM / %: 73
- compound: "N#Cc1ccc(O[C@H]2CC[C@H](NC(=O)c3ccc(N4CCC5(CC(N6CCC7(CC6)COc6cc8c(cc6C7)C(=O)N(C6CCC(=O)NC6=O)C8=O)C5)C4)nn3)CC2)cc1Cl (stereo partly shown)"
  inhibition at 0.1 µM / %: 81
- compound: "CCOC1(CN2CCC3(CC2)COc2c3ccc3c2C(=O)N(C2CCC(=O)NC2=O)C3=O)CCN(c2ccc(C(=O)N[C@H]3CC[C@H](Oc4ccc(C#N)c(Cl)c4)CC3)nn2)CC1 (stereo partly shown)"
  inhibition at 0.1 µM / %: 56
- compound: "COc1cc(O[C@H]2C(C)(C)[C@H](NC(=O)c3ccc(N4CCC(C)(CN5CCC6(CCc7ccc8c(c7O6)CN(C6CCC(=O)NC6=O)C8=O)CC5)CC4)cc3)C2(C)C)ccc1C#N (stereo partly shown)"
  inhibition at 0.1 µM / %: 45
- compound: "N#Cc1ccc(O[C@H]2CC[C@H](NC(=O)c3ccc(N4CCC(F)(CN5CCC6(CC5)COc5ccc7c(c5C6)C(=O)N(C5CCC(=O)NC5=O)C7)CC4)nn3)CC2)cc1Cl (stereo partly shown)"
  inhibition at 0.1 µM / %: 47
- compound: "N#Cc1ccc(O[C@H]2CC[C@H](NC(=O)c3ccc(N4CC(N5CCC6(CC5)COc5cc7c(cc56)C(=O)N(C5CCC(=O)NC5=O)C7=O)C4)nn3)CC2)cc1Cl (stereo partly shown)"
  inhibition at 0.1 µM / %: 61
- compound: "COc1cc(O[C@H]2C(C)(C)[C@H](NC(=O)c3ccc(N4CCC(CN5CCC6(CC5)COc5c6ccc6c5C(=O)N(C5CCC(=O)NC5=O)C6=O)CC4)cc3)C2(C)C)ccc1C#N (stereo partly shown)"
  inhibition at 0.1 µM / %: 72
- compound: "N#Cc1ccc(O[C@H]2CC[C@H](NC(=O)c3ccc(N4CC5(CC(N6CCC7(CCc8ccc9c(c8O7)CN(C7CCC(=O)NC7=O)C9=O)CC6)C5)C4)nn3)CC2)cc1Cl (stereo partly shown)"
  inhibition at 0.1 µM / %: 72

====

Entries annotated with measured inhibition at 0.1 µM
target: AR protein (Homo sapiens, UniProt P10275, T878A); construct: degradation activity of the compounds disclosed in the present disclosure on AR protein in LNCaP cells; host or cells: LNCaP FGC; assay: Degradation of AR protein in LNCaP cells (Western blot); assay type: cell-based; settings: LNCaP cells, compound 100 nM, 8 hours, Western blot grayscale, GAPDH internal reference; read-out: Degradation rates of the AR protein in LNCaP cells, 100 nM (%)
attribute.measured: inhibition at 0.1 µM (%)

- molecule: "N#Cc1ccc(O[C@H]2CC[C@H](NC(=O)c3ccc(N4CC5(CCC(N6CCC7(CCc8cc9c(cc8O7)C(=O)N(C7CCC(=O)NC7=O)C9=O)CC6)CC5)C4)nn3)CC2)cc1Cl (some centres unmarked)"
  attribute.measured: "inhibition at 0.1 µM"
  units.label: "%"
  value: 61
- molecule: "N#Cc1ccc(O[C@H]2CC[C@H](NC(=O)c3ccc(N4CCC5(CCC(N6CCC7(CC6)COc6cc8c(cc67)C(=O)N(C6CCC(=O)NC6=O)C8=O)CC5)CC4)nn3)CC2)cc1Cl (some centres unmarked)"
  attribute.measured: "inhibition at 0.1 µM"
  units.label: "%"
  value: 49
- molecule: "N#Cc1ccc(O[C@H]2CC[C@H](NC(=O)c3ccc(N4CCC5(CC4)CC(N4CCC6(CC4)COc4cc7c(cc4C6)C(=O)N(C4CCC(=O)NC4=O)C7=O)C5)nn3)CC2)cc1Cl (some centres unmarked)"
  attribute.measured: "inhibition at 0.1 µM"
  units.label: "%"
  value: 71
- molecule: "COC1(CN2CC3(CCc4ccc5c(c4O3)C(=O)N(C3CCC(=O)NC3=O)C5=O)C2)CCN(c2ccc(C(=O)N[C@H]3CC[C@H](Oc4ccc(C#N)c(Cl)c4)CC3)nn2)CC1 (some centres unmarked)"
  attribute.measured: "inhibition at 0.1 µM"
  units.label: "%"
  value: 25
- molecule: "COc1cc(O[C@H]2C(C)(C)[C@H](NC(=O)c3ccc(N4CCC(C)(CN5CCC6(CCc7cc8c(cc7O6)CN(C6CCC(=O)NC6=O)C8=O)CC5)CC4)cc3)C2(C)C)ccc1C#N (some centres unmarked)"
  attribute.measured: "inhibition at 0.1 µM"
  units.label: "%"
  value: 56

====

Biological target: AR protein (Homo sapiens)
Construct: degradation activity of the compounds disclosed in the present disclosure on AR protein in VCaP cells; host or cells: VCaP
Sequence (P10275 1-920): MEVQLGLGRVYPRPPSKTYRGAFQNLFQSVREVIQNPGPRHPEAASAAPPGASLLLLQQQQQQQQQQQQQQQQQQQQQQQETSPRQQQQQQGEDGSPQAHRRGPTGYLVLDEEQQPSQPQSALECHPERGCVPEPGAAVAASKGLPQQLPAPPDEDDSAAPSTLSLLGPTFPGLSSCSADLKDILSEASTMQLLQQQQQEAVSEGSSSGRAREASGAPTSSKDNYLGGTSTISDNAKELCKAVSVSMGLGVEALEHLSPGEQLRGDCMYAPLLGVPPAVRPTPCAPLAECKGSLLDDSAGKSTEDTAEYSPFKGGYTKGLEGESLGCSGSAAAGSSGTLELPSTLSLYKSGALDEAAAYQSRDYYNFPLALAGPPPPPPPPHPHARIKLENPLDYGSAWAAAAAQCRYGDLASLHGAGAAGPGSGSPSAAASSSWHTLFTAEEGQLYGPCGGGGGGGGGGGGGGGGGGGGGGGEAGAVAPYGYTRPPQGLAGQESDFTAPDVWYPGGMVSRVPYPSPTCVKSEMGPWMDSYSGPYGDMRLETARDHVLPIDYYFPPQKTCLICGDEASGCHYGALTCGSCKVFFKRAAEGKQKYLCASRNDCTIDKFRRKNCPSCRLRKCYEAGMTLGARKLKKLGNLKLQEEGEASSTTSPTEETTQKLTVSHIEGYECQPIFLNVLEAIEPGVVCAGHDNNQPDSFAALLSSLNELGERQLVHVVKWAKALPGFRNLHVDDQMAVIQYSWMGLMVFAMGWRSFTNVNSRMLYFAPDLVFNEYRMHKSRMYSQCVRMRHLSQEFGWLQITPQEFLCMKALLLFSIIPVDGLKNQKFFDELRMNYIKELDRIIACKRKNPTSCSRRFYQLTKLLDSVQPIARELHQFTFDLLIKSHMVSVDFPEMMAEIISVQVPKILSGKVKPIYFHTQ
Assay: Degradation of AR protein in VCaP cells (Western blot)
Assay type: cell-based
Details: compound at 10 nM, 8 hours, read-out: Degradation rate of the AR protein in VCaP cells, 10 nM (%)
attribute.measured: inhibition at 0.01 µM (%)

- compound: "COc1cc(O[C@H]2C(C)(C)[C@H](NC(=O)c3ccc(N4CCC(C#N)(CN5CCC6(CC5)COc5c6ccc6c5C(=O)N(C5CCC(=O)NC5=O)C6=O)CC4)cc3)C2(C)C)ccc1C#N (stereo partly shown)"
  measured.on: "AR protein (Homo sapiens)"
  attribute.measured: "inhibition at 0.01 µM"
  value: -46
- compound: "CC1(CN2CCC3(CC2)COc2c3ccc3c2C(=O)N(C2CCC(=O)NC2=O)C3=O)CCN(c2ncc(C(=O)NC3CCC(Oc4ccc(C#N)c(Cl)c4)CC3)cn2)CC1 (stereo not shown)"
  measured.on: "AR protein (Homo sapiens)"
  attribute.measured: "inhibition at 0.01 µM"
  value: 3
- compound: "COc1cc(O[C@H]2C(C)(C)[C@H](NC(=O)c3ccc(N4CCC(C)(CN5CCC6(CC5)COc5cc7c(cc5C6)C(=O)N(C5CCC(=O)NC5=O)C7=O)CC4)cc3)C2(C)C)ccc1C#N (stereo partly shown)"
  measured.on: "AR protein (Homo sapiens)"
  attribute.measured: "inhibition at 0.01 µM"
  value: -21
- compound: "CCC1(CN2CCC3(CC2)COc2c3ccc3c2C(=O)N(C2CCC(=O)NC2=O)C3=O)CCN(c2ccc(C(=O)N[C@H]3CC[C@H](Oc4ccc(C#N)c(C(F)(F)F)c4)CC3)nn2)CC1 (stereo partly shown)"
  measured.on: "AR protein (Homo sapiens)"
  attribute.measured: "inhibition at 0.01 µM"
  value: 2
- compound: "CCC1(CN2CCC3(CC2)COc2c3ccc3c2C(=O)N(C2CCC(=O)NC2=O)C3=O)CCN(c2ccc(C(=O)N[C@H]3CC[C@H](Oc4ccc(C#N)c(Cl)c4)CC3)nn2)CC1 (stereo partly shown)"
  measured.on: "AR protein (Homo sapiens)"
  attribute.measured: "inhibition at 0.01 µM"
  value: -21
- compound: "N#Cc1ccc(O[C@H]2CC[C@H](NC(=O)c3ccc(N4CCC(CN5CC6(CCc7cc8c(cc7O6)C(=O)N(C6CCC(=O)NC6=O)C8)C5)CC4)nn3)CC2)cc1Cl (stereo partly shown)"
  measured.on: "AR protein (Homo sapiens)"
  attribute.measured: "inhibition at 0.01 µM"
  value: 24
- compound: "COc1cc(O[C@H]2C(C)(C)[C@H](NC(=O)c3ccc(N4CCC(F)(CN5CCC6(CC5)COc5cc7c(cc5C6)C(=O)N(C5CCC(=O)NC5=O)C7=O)CC4)cc3)C2(C)C)ccc1C#N (stereo partly shown)"
  measured.on: "AR protein (Homo sapiens)"
  attribute.measured: "inhibition at 0.01 µM"
  value: -47
- compound: "N#Cc1ccc(O[C@H]2CC[C@H](NC(=O)c3ccc(N4CC[C@H](CN5CCC6(CCc7cc8c(cc7O6)C(=O)N(C6CCC(=O)NC6=O)C8=O)CC5)C4)nn3)CC2)cc1Cl (stereo partly shown)"
  measured.on: "AR protein (Homo sapiens)"
  attribute.measured: "inhibition at 0.01 µM"
  value: 58
- compound: "N#Cc1ccc(O[C@H]2CC[C@H](NC(=O)c3ccc(N4CCC(O)(CN5CCC6(CC5)COc5c6ccc6c5C(=O)N(C5CCC(=O)NC5=O)C6=O)CC4)nn3)CC2)cc1C(F)(F)F (stereo partly shown)"
  measured.on: "AR protein (Homo sapiens)"
  attribute.measured: "inhibition at 0.01 µM"
  value: 7
- compound: "CCOC1(CN2CCC3(CC2)COc2c3ccc3c2C(=O)N(C2CCC(=O)NC2=O)C3=O)CCN(c2ccc(C(=O)N[C@H]3CC[C@H](Oc4ccc(C#N)c(OC)c4)CC3)nn2)CC1 (stereo partly shown)"
  measured.on: "AR protein (Homo sapiens)"
  attribute.measured: "inhibition at 0.01 µM"
  value: 16

Each recorded value in this set is attributed to patent US20260234157A1.
